tested target: PD-1-Ig binding to PD-L1-TVMV-His (PD-L1-His) (Homo sapiens (Human), UniProt Q9NZQ7)
Sequence (Q9NZQ7 other isoform, or with tags, fused parts or gaps): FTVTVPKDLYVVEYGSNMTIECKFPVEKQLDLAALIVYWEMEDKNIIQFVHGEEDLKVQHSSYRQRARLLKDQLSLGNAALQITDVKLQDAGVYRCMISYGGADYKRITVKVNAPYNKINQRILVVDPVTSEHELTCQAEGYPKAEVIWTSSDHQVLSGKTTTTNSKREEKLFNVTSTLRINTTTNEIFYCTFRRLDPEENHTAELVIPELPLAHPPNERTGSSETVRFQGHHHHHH
test details: PD-1/PD-L1 Homogenous Time-Resolved Fluorescence (HTRF) binding assay (PD-1-Ig/PD-L1-His)
run conditions: PD-1-Ig (20 nM)/PD-L1-His (10 nM); range classes
Where a SMILES comes first, the peptide text is derived from it. Bridges are numbered along the chain shown (N, C = ends). [ ]: non-standard residue; d: D form. NMeNle = CCCC[C@H](NC)C(=O)O; NMeA = CN[C@@H](C)C(=O)O; Orn = NCCC[C@H](N)C(=O)O; Sar = CNCC(=O)O
measurement label: IC50

compound=CCCC[C@H]1C(=O)N(C)[C@@H](CCCC)C(=O)N[C@@H](C)C(=O)N[C@H]2CSCC(=O)N[C@@H](Cc3ccc(O)cc3)C(=O)N(C)[C@@H](C)C(=O)N[C@@H](CC(N)=O)C(=O)N3CCC[C@H]3C(=O)N[C@@H](Cc3cn(C(=O)C(F)(F)F)cn3)C(=O)N[C@@H](CC(C)C)C(=O)N[C@@H](CCCNC(=O)CNC2=O)C(=O)N[C@@H](Cc2c[nH]c3ccccc23)C(=O)N[C@@H](CO)C(=O)N[C@@H](Cc2c[nH]c3ccccc23)C(=O)N1C result="10 to 99 nM"
compound="CCCC[C@H]1C(=O)N(C)[C@@H](CCCC)C(=O)N[C@H]2CCC(=O)NCCC[C@H](NC(=O)[C@H](Cc3c[nH]c4ccccc34)NC(=O)CN(C)C(=O)[C@H](CC(C)C)NC(=O)[C@H](Cc3c[nH]cn3)NC(=O)[C@@H]3CCCN3C(=O)[C@H](CC(N)=O)NC(=O)[C@H](C)N(C)C(=O)[C@H](Cc3ccccc3)NC(=O)CSC[C@@H](C(=O)NCC(N)=O)NC2=O)C(=O)N[C@@H](Cc2c[nH]c3ccccc23)C(=O)N1C [Example 5003] ({CH2CO}-F[NMeA]NPHL[Sar]W[Orn]W[NMeNle][NMeNle]ECG-NH2; lactam 9-13; thioether N-14)" result="10 to 99 nM"
